# Lookup of reported MIC for E. coli ATCC 35218 keyed by entry
System: E. coli ATCC 35218
Format: cell-based
Stated conditions: ATCC 35218
Square brackets hold non-standard residues; d marks the D form. Peptide text beside a SMILES is read from it. Nspe = C[C@H](NCC(=O)O)c1ccccc1; Nphe = O=C(O)CNCc1ccccc1; Nlys = NCCCCNCC(=O)O
State the value, then name its unit.

Reference set (2 entries):
Molecule: C[C@@H](c1ccccc1)N(CC(N)=O)C(=O)CN(C(=O)CN(CCCCN)C(=O)CN(C(=O)CN(C(=O)CN(CCCCN)C(=O)[C@@H]1CCCN1C(=O)CN(C(=O)CN(CCCCN)C(=O)CN(C(=O)CN(C(=O)CNCCCCN)[C@@H](C)c1ccccc1)[C@@H](C)c1ccccc1)[C@@H](C)c1ccccc1)[C@@H](C)c1ccccc1)[C@@H](C)c1ccccc1)[C@@H](C)c1ccccc1 [1-Pro6] (H-[Nlys][Nspe][Nspe][Nlys][Nspe]P[Nlys][Nspe][Nspe][Nlys][Nspe][Nspe]-NH2)
MIC for E. coli ATCC 35218: 12.5 µM

Molecule: NCCCCNCC(=O)N(CC(=O)N(CC(=O)N(CCCCN)CC(=O)N(CC(=O)N(CC(=O)N(CCCCN)CC(=O)N(CC(=O)N(CC(=O)N(CCCCN)CC(=O)N(CC(=O)N(CC(N)=O)Cc1ccccc1)Cc1ccccc1)Cc1ccccc1)Cc1ccccc1)Cc1ccccc1)Cc1ccccc1)Cc1ccccc1)Cc1ccccc1 [1achiral, H-(Nlys-Npm-Npm)4-NH2] (H-[Nlys][Nphe][Nphe][Nlys][Nphe][Nphe][Nlys][Nphe][Nphe][Nlys][Nphe][Nphe]-NH2)
MIC for E. coli ATCC 35218: 12.5 µM

# input for lookup
Quick note, MIC for E. coli ATCC 35218 for C[C@@H](c1ccccc1)N(CC(N)=O)C(=O)CN(CCCCN)C(=O)CN(CCCCN)C(=O)CN(C(=O)CN(C(=O)CN(CCCCN)C(=O)CN(C(=O)CN(CCCCN)C(=O)CN(CCCCN)C(=O)CN(C(=O)CN(C(=O)CNCCCCN)[C@@H](C)c1ccccc1)[C@@H](C)c1ccccc1)[C@@H](C)c1ccccc1)[C@@H](C)c1ccccc1)[C@@H](C)c1ccccc1 [1-Nlys5,11, H-(Nlys-Nspe-Nspe-Nlys-Nlys-Nspe)2-NH2] (H-[Nlys][Nspe][Nspe][Nlys][Nlys][Nspe][Nlys][Nspe][Nspe][Nlys][Nlys][Nspe]-NH2) landed at 30 µM
